B1: LINE1-mini (parent)
chain: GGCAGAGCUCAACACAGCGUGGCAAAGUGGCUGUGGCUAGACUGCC

variants of: B1; experiment: self-cleavage, relative activity (ratio to wild type); higher = more cleavage; in vitro, sequencing; the parent is a self-cleaving ribozyme
Property: self-cleavage

[[record]]
variant_string = "A4U C15A"
reported_measurement = 0.08

[[record]]
variant_string = "A16C A25U"
reported_measurement = 0.08

[[record]]
variant_string = "G1C A25U"
reported_measurement = 0.08

[[record]]
variant_string = "A24U G33U"
reported_measurement = 0.08

[[record]]
variant_string = "C8G C18G"
reported_measurement = 0.08

[[record]]
variant_string = "C10A G17C"
reported_measurement = 0.1

[[record]]
variant_string = "A6G G44C"
reported_measurement = 0.14

[[record]]
variant_string = "A12C U43C"
reported_measurement = 0.01

[[record]]
variant_string = "G5A G29C"
reported_measurement = 0.07

[[record]]
variant_string = "C3A U34G"
reported_measurement = 0.12

[[record]]
variant_string = "A41U C46G"
reported_measurement = 0.57

